Molecular target: human progesterone receptor A (PR-A) (Homo sapiens)
Construct: expressed in transfected cells; host or cells: SK-N-MC human neuroblastoma cells, stably transfected with pRChPR-A-neo and pMMTV-LUC
Sequence (P06401 165-933): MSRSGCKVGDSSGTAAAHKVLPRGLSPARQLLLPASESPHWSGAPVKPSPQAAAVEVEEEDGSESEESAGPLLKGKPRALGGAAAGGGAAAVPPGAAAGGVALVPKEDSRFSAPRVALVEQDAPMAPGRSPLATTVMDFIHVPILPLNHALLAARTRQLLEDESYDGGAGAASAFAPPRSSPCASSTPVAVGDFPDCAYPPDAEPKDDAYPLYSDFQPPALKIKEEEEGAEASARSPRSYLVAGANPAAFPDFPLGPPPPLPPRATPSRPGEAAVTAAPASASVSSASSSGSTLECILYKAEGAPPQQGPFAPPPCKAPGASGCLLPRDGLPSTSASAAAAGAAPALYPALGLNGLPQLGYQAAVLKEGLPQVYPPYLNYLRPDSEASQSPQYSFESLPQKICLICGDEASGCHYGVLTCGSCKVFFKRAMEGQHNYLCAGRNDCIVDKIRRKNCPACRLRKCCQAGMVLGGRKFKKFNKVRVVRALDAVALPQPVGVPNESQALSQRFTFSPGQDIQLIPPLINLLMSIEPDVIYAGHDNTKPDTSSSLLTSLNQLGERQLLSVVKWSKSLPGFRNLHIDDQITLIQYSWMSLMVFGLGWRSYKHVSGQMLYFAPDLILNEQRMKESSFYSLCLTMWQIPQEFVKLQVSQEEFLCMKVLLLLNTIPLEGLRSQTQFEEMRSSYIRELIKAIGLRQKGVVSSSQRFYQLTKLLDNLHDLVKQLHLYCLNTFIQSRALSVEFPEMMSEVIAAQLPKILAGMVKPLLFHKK
Assay: Agonistic activity, MTV-LUC reporter in SK-N-MC cells stably transfected with PR-A
Assay type: cell-based
Details: 24 hours, mean ± SD, read-out: Potency EC50, PR-A
Measured endpoint: EC50

>>> print(df.to_string())
                                   compound  meas_value
0  CCC(=O)[C@@]1(C)CC[C@H]2[C@@H]3CCC4=CC(=O)CCC4=C3CC[C@@]21C [Promegestone, promegestone, reference compound]     0.23 nM

From: patent US8053426B2
